Test Details: Cytotoxicity assay CellTitre-Blue, HEK-293T
Assay type: cell-based
Condition Summary: human, HEK-293T cells, read-out: Cytotoxicity CC50 HEK293T
Record form. Attribute: CC50 at 4 days. Fill in for each entry.

**Query** Given the entry C=C(C)[C@@H]1CC[C@]2(CCNCCN3CCN(Cc4ccccc4)CC3)CC[C@]3(C)[C@H](CC[C@@H]4[C@@]5(C)CC[C@H](OC(=O)CC(C)(C)C(=O)O)C(C)(C)[C@@H]5CC[C@]43C)[C@@H]12 [Compound 51hh] , report its measured CC50 at 4 days.
**Result** > 100 nM

**Query** Reported CC50 at 4 days, compound C=C(C)[C@@H]1CC[C@]2(CCNCCN3CCN(S(C)(=O)=O)CC3)CC[C@]3(C)[C@H](CC[C@@H]4[C@@]5(C)CC[C@H](OC(=O)CC(C)(C)C(=O)O)C(C)(C)[C@@H]5CC[C@]43C)[C@@H]12 [Compound 51ff] : ____
**Result** > 100 nM

**Query** Look up CC50 at 4 days for this compound: C=C(C)[C@@H]1CC[C@]2(CCNCCN3CCS(=O)(=O)CC3)CC[C@]3(C)[C@H](CC[C@@H]4[C@@]5(C)CC[C@H](OC(=O)CC(C)(C)C(=O)O)C(C)(C)[C@@H]5CC[C@]43C)[C@@H]12 [Compound 51ee]
**Result** > 100 nM

----------
Tested on: panel of HIV-1 isolates in human PBMCs
Test Details: PBMC antiviral assay against a panel of HIV-1 isolates (RT activity)
Format: cell-based
Condition Summary: Human immunodeficiency virus 1, PBMC, isolate 93BR020, PBMC
I'd appreciate it if you could supply pIC50 values for the items below.
In simple prose, pIC50 is minus the logarithm base ten of a concentration in moles per litre.

**Query** I am curious: what pIC50 value has been reported for C=C(C)[C@@H]1CC[C@]2(CCNCCN3CCN(S(C)(=O)=O)CC3)CC[C@]3(C)[C@H](CC[C@@H]4[C@@]5(C)CC[C@H](OC(=O)CC(C)(C)C(=O)O)C(C)(C)[C@@H]5CC[C@]43C)[C@@H]12 [Compound 51ff] ?
**Result** 8.62

**Query** What does the record list as pIC50 for C=C(C)[C@@H]1CC[C@]2(CCNCCN3CCN(Cc4cccc(Cl)c4)CC3)CC[C@]3(C)[C@H](CC[C@@H]4[C@@]5(C)CC[C@H](OC(=O)CC(C)(C)C(=O)O)C(C)(C)[C@@H]5CC[C@]43C)[C@@H]12 [Compound 51o] ?
**Result** 7.88

----------
Give measured IC50 for each item. Keep answers brief.
System: panel of HIV-1 isolates in human PBMCs
Test Details: PBMC antiviral assay against a panel of HIV-1 isolates (RT activity)
Type: cell-based
Condition Summary: Human immunodeficiency virus 1, PBMC, isolate MDR769, PBMC
Counter-ions that a name gives are not always drawn.
// units = nM; emit number, no label

**Query** API: value(readout=IC50, system=panel of HIV-1 isolates in human PBMCs) for record C=C(C)[C@@H]1CC[C@]2(CCNCCN3CCN(S(C)(=O)=O)CC3)CC[C@]3(C)[C@H](CC[C@@H]4[C@@]5(C)CC[C@H](OC(=O)CC(C)(C)C(=O)O)C(C)(C)[C@@H]5CC[C@]43C)[C@@H]12 [Compound 51ff]
**Result** 1.7

**Query** Record lookup: for panel of HIV-1 isolates in human PBMCs, what IC50 belongs to C=C(C)[C@@H]1CC[C@]2(CCNCCN3CCN(Cc4ccccc4)CC3)CC[C@]3(C)[C@H](CC[C@@H]4[C@@]5(C)CC[C@H](OC(=O)CC(C)(C)C(=O)O)C(C)(C)[C@@H]5CC[C@]43C)[C@@H]12 [Compound 51hh] ?
**Result** 4.4

**Query** Form: Entry = C=C(C)[C@@H]1CC[C@]2(CCNCCN3CCS(=O)(=O)CC3)CC[C@]3(C)[C@H](CC[C@@H]4[C@@]5(C)CC[C@H](OC(=O)CC(C)(C)C(=O)O)C(C)(C)[C@@H]5CC[C@]43C)[C@@H]12 [Compound 51ee] | System = panel of HIV-1 isolates in human PBMCs | IC50 = ____
**Result** 1.4

**Query** Form field - read-out: IC50; system: panel of HIV-1 isolates in human PBMCs; submitted item: C=C(C)[C@@H]1CC[C@]2(CCNC3CCN(CCO)CC3)CC[C@]3(C)[C@H](CC[C@@H]4[C@@]5(C)CC[C@H](OC(=O)CC(C)(C)CC(=O)O)C(C)(C)[C@@H]5CC[C@]43C)[C@@H]12 [Compound 51f, Bis(trifluoroacetate) Salt]
**Result** 5.9
